# CONDITIONS_USED: 308.15 K; 101 kPa; Liquid
Exercise: state measured mass density for each of the molecules provided.
# value in kg/m3; strip the unit string

Note to self: mass density recorded for CCOC(=O)CC#N [ethyl cyanoacetate] was 1046.5

// mass density lookup, molecule = CCOC(=O)CCl [ethyl chloroethanoate] , result: 1132.5

Sample CCOC(C)=O [ethyl acetate] ; mass density observed: 882.6

For reference, reported mass density for CNC(C)=O [N-methylacetamide] stands at 945.9

----------
# CONDITIONS_USED: 303.15 K; 101 kPa; Liquid
PARAMETER_MEASURED: mass density (kg/m3)
Kindly answer with a numeric value in kg/m3, unit omitted.

# compound CNC(C)=O [N-methylacetamide] ; its mass density = 951.3

Just so you know, measured mass density for CCOC(=O)CCl [ethyl chloroethanoate] came out at 1139.29

Record CCOC(=O)CC#N [ethyl cyanoacetate] , field mass density: 1051.4

mass density reported for this compound CCOC(C)=O [ethyl acetate] : 888.9
